target: human GLP-1R (Homo sapiens, UniProt P43220, G168S); experiment: CHO GLP-1R Clone H6—Assay 1: HTRF cAMP cell-based functional agonist assay (high GLP-1R density); settings: Assay 1 EC50 (nM), CHO GLP-1R Clone H6, cAMP HTRF; geometric mean
Sequence (P43220 24-463 G168S limits assumed): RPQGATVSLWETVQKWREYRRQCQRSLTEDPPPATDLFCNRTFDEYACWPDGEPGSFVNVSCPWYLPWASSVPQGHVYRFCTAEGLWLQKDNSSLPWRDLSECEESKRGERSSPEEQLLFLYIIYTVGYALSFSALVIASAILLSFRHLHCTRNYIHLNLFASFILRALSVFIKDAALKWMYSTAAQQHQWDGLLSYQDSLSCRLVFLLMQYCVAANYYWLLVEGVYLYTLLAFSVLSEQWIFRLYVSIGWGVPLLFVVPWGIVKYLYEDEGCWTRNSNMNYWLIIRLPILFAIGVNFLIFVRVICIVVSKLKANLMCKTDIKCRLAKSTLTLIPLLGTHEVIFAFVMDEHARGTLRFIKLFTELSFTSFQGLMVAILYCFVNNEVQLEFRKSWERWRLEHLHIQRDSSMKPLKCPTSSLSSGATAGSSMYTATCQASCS
Listed here: items and their measured log10(EC50).
metric: log10(EC50) (log10 of the value in nM)

molecule	log10(EC50)
COCCn1c(CN2CCC(c3cccc(OCc4ccc(Cl)cc4F)n3)CC2C)nc2ccc(C(=O)O)cc21 (single isomer, unassigned) [Example 13A-04]	1.66
COCCn1c(CN2CCC(c3cccc(OCc4ccc(Cl)cc4F)n3)CC2C)nc2ccc(C(=O)O)cc21 (single isomer, unassigned) [Example 13A-01]	3.08
COCCn1c(CN2CC[C@@H](c3cccc(OCc4ccc(Cl)cc4F)n3)[C@H](O)C2)nc2ccc(C(=O)O)cc21 (racemic)	1.70
COCCn1c(CN2CC[C@@H](c3cccc(OCc4ccc(Cl)cc4F)n3)[C@@H](C)C2)nc2ccc(C(=O)O)cc21 (racemic)	1.65
COCCn1c(CN2CCN(c3cccc(OCc4ccc(Cl)cc4F)n3)C[C@H]2C)nc2ccc(C(=O)O)cc21 [Example 12A-11]	1.73
CO[C@H]1CCC[C@H]1Cn1c(CN2CCC(c3cccc(OCc4ccc(Cl)cc4F)n3)CC2)nc2ccc(C(=O)O)cc21 (racemic)	2.41
COCCn1c(CN2CCN(c3cccc(OCc4ccc(Cl)cc4F)n3)CC2C(F)(F)F)nc2ccc(C(=O)O)cc21 (single isomer, unassigned; enantiomer 2) [Example 12A-02]	1.56

====

Below: a set of entries, each annotated with reported Emax.
target: human GLP-1R (Homo sapiens, UniProt P43220, G168S); experiment: CHO GLP-1R Clone H6—Assay 1: HTRF cAMP cell-based functional agonist assay (high GLP-1R density); settings: read-out: Assay 1 Emax (%), CHO GLP-1R Clone H6; relative to saturating concentration of full agonist GLP-1 (1 μM); arithmetic mean

compound	Emax
CCn1cncc1Cn1c(CN2CCC(c3cccc(OCc4ccc(C#N)cc4F)n3)CC2)nc2ccc(C(=O)O)nc21 [Example 10A-75]	95%
O=C(O)c1ccc2nc(CN3CCC(c4cccc(OCc5ccc(Cl)cc5F)n4)CC3)n(C3CCOC3)c2c1 (stereo not shown) [Example 11A-26]	73%
Cc1nnc(CCn2c(CN3CCC(c4cccc(OCc5ccc(Cl)cc5F)n4)CC3)nc3ccc(C(=O)O)cc32)o1 [Example 10A-28]	71%
CC(C)(C)n1cnnc1Cn1c(CN2CCC(c3cccc(OCc4ccc(Cl)cc4F)n3)CC2)nc2ccc(C(=O)O)cc21 [Example 10A-46]	80%

====

Reported EC50 values for a set of compounds
target: human GLP-1R (Homo sapiens (Human), UniProt P43220, L260F); assay: CHO GLP-1R Clone C6—Assay 2: HTRF cAMP cell-based functional agonist assay (low GLP-1R density); details: CHO GLP-1R Clone C6, cAMP HTRF; geometric mean
Sequence (P43220 24-463 L260F): as the sequence (P43220 24-463 G168S limits assumed) above, with S145G, L237F counted along it

compound	EC50 (nM)
Cc1noc(CCn2c(CN3CCC(c4cccc(OCc5ccc(Cl)cc5F)n4)CC3)nc3ccc(C(=O)O)cc32)n1 [Example 11A-29]	1700
O=C(O)c1ccc2nc(CN3CCC(c4cccc(OCc5ccc(Cl)cc5F)n4)CC3)n(C[C@@H]3CCO3)c2c1 [Example 3A-01]	12
O=C(O)c1ccc2nc(CN3CCC(c4cccc(OCc5ccc(Cl)cc5F)n4)CC3)n(Cc3ncco3)c2n1 [Example 2A-18]	78
N#Cc1ccc(COc2cccc(C3CCN(Cc4nc5ccc(C(=O)O)nc5n4Cc4cnco4)CC3)n2)c(F)c1 [Example 10A-24]	130
